# System: ATP;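 further: ATP exposure 15 min at 22 °C before imaging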
# assay-procedure: switch fluorescence ratio, 500 uM ATP over buffer (Cy3 cluster intensity, sum of 5 cycles each) (fold (ratio)); higher = stronger signal-on switching upon ATP binding; sequences stand for … in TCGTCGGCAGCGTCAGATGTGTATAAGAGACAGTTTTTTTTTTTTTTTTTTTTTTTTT…TC
# condition-context: aptamer strand: ATP DNA aptamer (quencher-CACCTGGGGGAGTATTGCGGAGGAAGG + anchor), 100 nM annealed; ATP concentration: 500 uM
quantity-measured: switch fluorescence ratio

- sequence: "GTTGCGTGCT"
  quantity-measured: "switch fluorescence ratio"
  recorded-result: 0.969
- sequence: "TTTGGAGAGA"
  quantity-measured: "switch fluorescence ratio"
  recorded-result: 1
- sequence: "TAATGTTTAT"
  quantity-measured: "switch fluorescence ratio"
  recorded-result: 0.996
- sequence: "AAGTGGGGTG"
  quantity-measured: "switch fluorescence ratio"
  recorded-result: 0.982
- sequence: "TAGCCAAGGG"
  quantity-measured: "switch fluorescence ratio"
  recorded-result: 0.994
- sequence: "GCAAGGGGTT"
  quantity-measured: "switch fluorescence ratio"
  recorded-result: 1
- sequence: "TACGGTGGTG"
  quantity-measured: "switch fluorescence ratio"
  recorded-result: 0.987
- sequence: "GTGTTGCCCG"
  quantity-measured: "switch fluorescence ratio"
  recorded-result: 1.07
- sequence: "TTATCTAGTT"
  quantity-measured: "switch fluorescence ratio"
  recorded-result: 1
- sequence: "AACGGGTACC"
  quantity-measured: "switch fluorescence ratio"
  recorded-result: 1.09
- sequence: "TCCGTTATTT"
  quantity-measured: "switch fluorescence ratio"
  recorded-result: 1.02
- sequence: "CAAGTGGGGG"
  quantity-measured: "switch fluorescence ratio"
  recorded-result: 1.02
- sequence: "TTTATAGGCT"
  quantity-measured: "switch fluorescence ratio"
  recorded-result: 1.01

----------
# Test system: ATP;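 further: ATP exposure 15 min at 22 °C before imaging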
# assay-procedure: switch fluorescence ratio, 500 uM ATP over buffer (Cy3 cluster intensity, sum of 5 cycles each) (fold (ratio)); higher = stronger signal-on switching upon ATP binding; sequences stand for … in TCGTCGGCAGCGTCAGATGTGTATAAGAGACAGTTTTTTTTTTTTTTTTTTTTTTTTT…TC
# condition-context: aptamer strand: ATP DNA aptamer (quencher-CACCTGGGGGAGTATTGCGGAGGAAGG + anchor), 100 nM annealed; ATP concentration: 500 uM
Listed next: entries and their corresponding switch fluorescence ratio.
quantity-measured: switch fluorescence ratio

- sequence: "ATCGGGTGCG"
  quantity-measured: "switch fluorescence ratio"
  recorded-result: 0.981
- sequence: "CAATGGGTAC"
  quantity-measured: "switch fluorescence ratio"
  recorded-result: 0.969
- sequence: "GCTAGAGTGC"
  quantity-measured: "switch fluorescence ratio"
  recorded-result: 0.979

----------
# Test system: ATP;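 further: ATP exposure 15 min at 22 °C before imaging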
# assay-procedure: switch fluorescence ratio, 500 uM ATP over buffer (Cy3 cluster intensity, sum of 5 cycles each) (fold (ratio)); higher = stronger signal-on switching upon ATP binding; sequences stand for … in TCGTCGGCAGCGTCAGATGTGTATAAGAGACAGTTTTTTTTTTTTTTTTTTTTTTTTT…TC
# condition-context: aptamer strand: ATP DNA aptamer (quencher-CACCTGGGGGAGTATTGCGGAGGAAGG + anchor), 100 nM annealed; ATP concentration: 500 uM
quantity-measured: switch fluorescence ratio

- sequence: "CGGCTTAGAT"
  recorded-result: 0.984
- sequence: "TGCGGTTTTT"
  recorded-result: 0.998
- sequence: "GGATGAAACT"
  recorded-result: 1.01
- sequence: "TATTTTATGT"
  recorded-result: 1.02
- sequence: "GGTAATTTAG"
  recorded-result: 1.02
- sequence: "CCTGGGGGAA"
  recorded-result: 1.02
- sequence: "ATCGCTTACA"
  recorded-result: 1.02
- sequence: "ACTGGGTTTT"
  recorded-result: 1.02
- sequence: "TGTTTGCTTT"
  recorded-result: 0.986
- sequence: "AAATGTTCGT"
  recorded-result: 1.01
- sequence: "TTAAGATTTT"
  recorded-result: 0.993
- sequence: "AGTTGGGGAT"
  recorded-result: 0.986
- sequence: "CGAAGATCGA"
  recorded-result: 0.982
- sequence: "TTCGGGATCG"
  recorded-result: 0.981
- sequence: "TTATTGAAA"
  recorded-result: 1.02
- sequence: "CTAAAGAAAG"
  recorded-result: 0.989
- sequence: "TTTGGAAATG"
  recorded-result: 1.01
- sequence: "TAGTTTGGCA"
  recorded-result: 0.985
- sequence: "AGGTTCTGGG"
  recorded-result: 1.01
- sequence: "ATGTGTTGGT"
  recorded-result: 1
- sequence: "GTTCAAATAG"
  recorded-result: 0.988
- sequence: "TTTATCTATT"
  recorded-result: 1
- sequence: "TTTCAGTTTC"
  recorded-result: 1.02
- sequence: "GCTGATTGGA"
  recorded-result: 0.979
- sequence: "ACGAGAGAAA"
  recorded-result: 0.974
- sequence: "TTGGCGTTCG"
  recorded-result: 1.01
- sequence: "ACCCGTTTTG"
  recorded-result: 1.01
- sequence: "AAGGGGGCTT"
  recorded-result: 0.994
- sequence: "AGATTGTGGT"
  recorded-result: 0.99

----------
# Test system: ATP;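 further: ATP exposure 15 min at 22 °C before imaging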
# assay-procedure: switch fluorescence ratio, 500 uM ATP over buffer (Cy3 cluster intensity, sum of 5 cycles each) (fold (ratio)); higher = stronger signal-on switching upon ATP binding; sequences stand for … in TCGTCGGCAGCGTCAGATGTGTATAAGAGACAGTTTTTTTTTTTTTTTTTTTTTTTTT…TC
# condition-context: aptamer strand: ATP DNA aptamer (quencher-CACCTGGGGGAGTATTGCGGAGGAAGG + anchor), 100 nM annealed; ATP concentration: 500 uM
Listed next: entries and their corresponding switch fluorescence ratio.
quantity-measured: switch fluorescence ratio

- sequence: "TCCGAATTGG"
  recorded-result: 1.05
- sequence: "GCAAATGTAT"
  recorded-result: 1
- sequence: "ACGGAGGGTG"
  recorded-result: 1.03
- sequence: "GGGTGATGGG"
  recorded-result: 0.977
- sequence: "GGGCTGGGGG"
  recorded-result: 1.01
- sequence: "TCCTAAAAGT"
  recorded-result: 1.01
- sequence: "GGATACGGGA"
  recorded-result: 1.05
- sequence: "GTTGGATTAA"
  recorded-result: 1
- sequence: "CGGTATTTGC"
  recorded-result: 0.979
- sequence: "GGTAGGTCGT"
  recorded-result: 1.02
- sequence: "TTTTAGTTCG"
  recorded-result: 1
- sequence: "GGTAATGGCA"
  recorded-result: 1.01
- sequence: "AGTGGTGGGG"
  recorded-result: 0.966
- sequence: "CGCTGGACGG"
  recorded-result: 1.02
- sequence: "AACCTGGGGG"
  recorded-result: 1.1
- sequence: "GCCAAAGACA"
  recorded-result: 0.957
- sequence: "CTTTGGGGAC"
  recorded-result: 1.05
- sequence: "TTTAAGGGGG"
  recorded-result: 1.15
- sequence: "TCAGGGGGTG"
  recorded-result: 1.05

----------
# Test system: ATP;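 further: ATP exposure 15 min at 22 °C before imaging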
# assay-procedure: switch fluorescence ratio, 500 uM ATP over buffer (Cy3 cluster intensity, sum of 5 cycles each) (fold (ratio)); higher = stronger signal-on switching upon ATP binding; sequences stand for … in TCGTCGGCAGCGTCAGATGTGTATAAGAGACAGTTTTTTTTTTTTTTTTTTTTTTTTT…TC
# condition-context: aptamer strand: ATP DNA aptamer (quencher-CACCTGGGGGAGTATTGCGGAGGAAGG + anchor), 100 nM annealed; ATP concentration: 500 uM
quantity-measured: switch fluorescence ratio

- sequence: "ATTTGGGGAC"
  quantity-measured: "switch fluorescence ratio"
  recorded-result: 0.98
- sequence: "AAGGATTAAT"
  quantity-measured: "switch fluorescence ratio"
  recorded-result: 0.987
- sequence: "TAAAATAAAT"
  quantity-measured: "switch fluorescence ratio"
  recorded-result: 1.02
- sequence: "TTTGGAAA"
  quantity-measured: "switch fluorescence ratio"
  recorded-result: 1.01
- sequence: "GCGATGTCT"
  quantity-measured: "switch fluorescence ratio"
  recorded-result: 0.998
- sequence: "TGATTGGTTT"
  quantity-measured: "switch fluorescence ratio"
  recorded-result: 1
- sequence: "AACCCGGGAG"
  quantity-measured: "switch fluorescence ratio"
  recorded-result: 1.17

----------
# System: ATP;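 further: ATP exposure 15 min at 22 °C before imaging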
# assay-procedure: switch fluorescence ratio, 500 uM ATP over buffer (Cy3 cluster intensity, sum of 5 cycles each) (fold (ratio)); higher = stronger signal-on switching upon ATP binding; sequences stand for … in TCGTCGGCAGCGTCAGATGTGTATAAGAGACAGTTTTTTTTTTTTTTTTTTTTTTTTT…TC
# condition-context: aptamer strand: ATP DNA aptamer (quencher-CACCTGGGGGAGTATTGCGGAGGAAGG + anchor), 100 nM annealed; ATP concentration: 500 uM
quantity-measured: switch fluorescence ratio

- sequence: "TGGTTTGGTT"
  recorded-result: 0.986
- sequence: "TTAGTGGTAC"
  recorded-result: 1.15
- sequence: "TTAATAGATT"
  recorded-result: 0.998
- sequence: "CTATCCATGG"
  recorded-result: 0.993
- sequence: "CGGGGTTCGA"
  recorded-result: 1
- sequence: "TTATTGTTGG"
  recorded-result: 0.974
